Endpoint: IC50. System: influenza A virus (IAV) PA-Nter fragment (amino acids 1-209) (Influenza A virus). Items follow.
Reply with just the number (in nM).

CC(C)N1CCn2c(Cc3ccccc3-c3ccc(C(F)(F)F)c(F)c3)nc(=O)c(O)c2C1=O; 380
CC(C)N1CCn2c(CC3(c4cccc5ccccc45)CCCC3)nc(=O)c(O)c2C1=O; 270
O=C1NCCn2c(Cc3ccccc3-c3ccccc3)nc(=O)c(O)c21; 60

Now look at this one.
Query block: Request - read-out IC50 | tested on influenza A virus (IAV) PA-Nter fragment (amino acids 1-209) (Influenza A virus) | molecule CC(C)N1CCn2c(Cc3ccccc3-c3cccc(F)c3)nc(=O)c(O)c2C1=O
Result block: 380

Data origin, for the record: patent US9045486B2
